Would you mind telling me the reported EC50 of each entry?
Target: human poliovirus receptor (PVR, CD155) expressed on cells (human) (UniProt P15151)
Test: flow cytometry, binding to PVR-expressing HEK 293 cells
One number for each entry, in nM.

Observe how each entry below is paired with its result.
What measured EC50 goes with humanized 5B9 variant VH4/VK3 (antibody, V domains shown) VH: QVQLVQSGAEVKKPGASVKVSCKATGYTFSNYWIEWVRQAPGQGLEWIGEIFPGSGRINFNEKFKGRVTFTADTSISTTYMELSRLRSDDTAVYYCARTKIYGNSFDYWGQGTLVTVSS VL: DIQMTQSPSSLSASVGDRVTITCRASQDVGTAVVWYQQKPGKAPKLLIYWASSRHEGVPSRFSGSGSGTDFTLTISSLQPEDFATYFCQQYSRYPLTFGQGTKLEIK ?
0.59

What measured EC50 goes with humanized 5B9 variant VH3/VK3 (antibody, V domains shown) VH: QVQLVQSGAEVKKPGASVKVSCKATGYTFSNYWIEWIKQAPGQGLEWIGEIFPGSGRINFNEKFKGRVTFTADTSISTTYMELSRLRSDDTAVYYCARTKIYGNSFDYWGQGTLVTVSS VL: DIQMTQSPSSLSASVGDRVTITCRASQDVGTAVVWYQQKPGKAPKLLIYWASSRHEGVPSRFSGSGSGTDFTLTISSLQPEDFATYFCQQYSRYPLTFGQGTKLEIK ?
0.53

Okay, now this binder:
What measured EC50 goes with humanized 5B9 variant VH5/VK2 (antibody, V domains shown) VH: QVQLVQSGAEVKKPGASVKVSCKATGYTFSNYWIEWVRQAPGQGLEWMGEIFPGSGRINFNEKFKGRVTFTADTSISTAYMELSRLRSDDTAVYYCARTKIYGNSFDYWGQGTLVTVSS VL: DIQMTQSPSSLSASVGDRVTITCKASQDVGTAVVWYQQKPGKAPKLLIYWASSRHEGVPDRFSGSGSGTDFTLTISSLQPEDFADYFCQQYSRYPLTFGQGTKLEIK ?
0.64
